- Tested System: Recombinant HCV polymerase (Hepatitis C virus genotype 1b)
- Construct: Recombinant HCV polymerase was tested for its ability to perform primer/template-directed transcription
- Sequence (P26663 2420-3010): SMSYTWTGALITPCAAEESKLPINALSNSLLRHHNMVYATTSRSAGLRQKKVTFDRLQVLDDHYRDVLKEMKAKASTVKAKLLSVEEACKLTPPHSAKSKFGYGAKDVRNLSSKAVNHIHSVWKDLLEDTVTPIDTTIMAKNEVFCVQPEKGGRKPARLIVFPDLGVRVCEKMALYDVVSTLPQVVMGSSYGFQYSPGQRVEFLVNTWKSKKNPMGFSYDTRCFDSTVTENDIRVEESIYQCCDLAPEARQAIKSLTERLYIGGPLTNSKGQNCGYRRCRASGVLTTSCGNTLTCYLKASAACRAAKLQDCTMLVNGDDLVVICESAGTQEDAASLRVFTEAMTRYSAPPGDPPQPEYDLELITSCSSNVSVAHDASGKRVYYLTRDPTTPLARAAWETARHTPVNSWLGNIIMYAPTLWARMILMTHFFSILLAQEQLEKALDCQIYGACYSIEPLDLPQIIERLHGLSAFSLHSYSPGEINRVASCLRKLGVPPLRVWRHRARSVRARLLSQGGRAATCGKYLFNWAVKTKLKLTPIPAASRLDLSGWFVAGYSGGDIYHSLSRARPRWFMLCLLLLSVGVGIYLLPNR
- Protocol: biochemical
- Measurement Setup: inhibition of polymerase-directed transcription; 30 min at 30° C; 30 nM enzyme; cpm data in triplicate
Please use the following IC50 ranges when assigning a class: bottom (below 4 nM), middle (4 nM to below 10 nM), top (10 nM or more)

Some solved entries appear below for comparison.
Molecule	Group Label
CCOc1cnc(CC)cc1CCC1(C2CCCC2)CC(O)=C(Cc2nc3ncc(C)cn3n2)C(=O)O1 (single isomer, unassigned) [A(55)]	bottom
CCc1cc(CCC2(C3CCCC3)CC(O)=C(Cc3nc4nc(C)cc(C)n4n3)C(=O)O2)ccn1 (single isomer, unassigned) [A(44)]	middle
CCCOc1cnc(CC)cc1CCC1(C2CCCC2)CC(O)=C(Cc2nc3nc(C)cc(C)n3n2)C(=O)O1 (single isomer, unassigned) [A(54)]	bottom
CCc1cc(CCC2(C3CCCC3)CC(O)=C(Cc3nc4nc(C)cc(C)n4n3)C(=O)O2)ccc1NS(=O)(=O)CC (stereo not drawn) [A(108)]	middle
CCn1cc(CC2=C(O)CC(CCc3ccc(C(C)(C)C#N)c(Cl)c3)(C3CCCC3)OC2=O)cn1 (stereo not drawn) [B(23)]	top

Ask: Field: class (IC50) — entry: CCc1ccc(OC)c(CCC2(C3CCCC3)CC(=O)CC(=O)O2)n1 (stereo not drawn) [A(5)]
Result: top

Ask: Field: class (IC50) — entry: CCc1cc(CCC2(C3CCCC3)CC(=O)CC(=O)O2)c(OC)cn1 (stereo not drawn) [A(2)]
Result: top
